Each entry below carries its recorded activity change, negative = inhibition.
- measured_on: D(2) dopamine receptor (Homo sapiens)
- procedure_summary: Dopamine D2 receptor (DRD2) small molecule antagonists, cell-based qHTS assay (AID 1963595); further: on the % scale 0 is the no-effect control and ±100 the full control effect
- condition_info: HEK293-DRD2 cAMP HTRF antagonist mode; series mostly up to 92.4 µM
Records with an inconclusive call do not appear. Calls of active or inactive are those of the source. The call rests on the fitted dose curve; in most records, active means well fitted inhibition curve with a large enough effect in the signal ratio in the repeat runs, with a control signal flat; inconclusive means weak or mixed curves, or effect the other way; inactive means flat fitted curve, though single readings scatter; the % refers to the signal ratio.

compound_structure | experimental_value
[O-][n+]1ccccc1SSc1cccc[n+]1[O-] | -21.1% [at 18.9 µM] (inactive)

Find the recorded activity change, negative = inhibition belonging to "CCCCCCCCCCCCCCCCCBr" and report it.
0.232% [at 18.9 µM] (inactive)

Param item: "C1CCCCCCCCCCC1"
-0.815% [at 18.9 µM] (inactive)

Param item: "CCCCCCCCCCCCCOC(=O)CCSCCC(=O)OCCCCCCCCCCCCC"
-7.07% [at 18.9 µM] (inactive)

Param item: "c1cc2ccc3ccc4ccc5cccc6c(c1)c2c3c4c56"
-0.594% [at 3.28 µM] (inactive)

Param item: "CN(C)C(=O)NC1(c2ccccc2)CCN(CCC[C@]2(c3ccc(Cl)c(Cl)c3)CCCN(C(=O)c3ccccc3)C2)CC1"
3.81% [at 18.9 µM] (inactive)

Param item: "CN1CCN(c2cc3c(nn2)Oc2ccccc2N3C)CC1"
-3.28% [at 18.9 µM] (inactive)

Param item: "CC1=CC(=C(c2ccc(N)cc2)c2ccc(N)cc2)C=CC1=N"
0.406% [at 8.38 µM] (inactive)

Param item: "O=C(O)O"
0.0808% [at 8.38 µM] (inactive)

Param item: "NC[C@H]1O[C@H](O[C@H]2[C@H](O)[C@@H](O[C@H]3O[C@H](CO)[C@@H](O)[C@H](N)[C@H]3O)[C@H](N)C[C@@H]2N)[C@H](O)[C@@H](O)[C@@H]1O"
-3.37% [at 8.38 µM] (inactive)

Param item: "N=C(N)N1CCc2ccccc2C1"
16.9% [at 8.38 µM] (inactive)

----------
- procedure_summary: p53 small molecule agonists, cell-based qHTS assay with human liver microsomes: qHTS cell viability counter screen (AID 1963579); further: nearly all actives have a fitted effect of over 45% in size
- condition_info: p53RE-bla HCT-116 viability, ATP luminescence, 16 h, HLM; series mostly up to 66 µM
Results filed as inconclusive are left out. Calls of active or inactive are those of the source. Calls come from the whole dose curve.
Write down one outcome, taken from True = active, False = inactive

Would you please look over these solved cases?
compound | cat
CCCCNC1CC(C)(C)NC(C)(C)C1 | False
COc1ccc(OC)c(Cl)c1 | False
CCCC(C)CC (configuration not stated) | False
CCC(=O)c1ccc2c(c1)N(CCCN(C)C)c1ccccc1S2 | False
CCCC(=O)OCC | False

GET /call?item= "CC/C(=C(/c1ccc(O)cc1)c1ccc(OCCN(C)C)cc1)c1ccccc1" returns the recorded outcome of this test.
True

Param item: "Cc1c(-c2ccccc2)oc2c(C(=O)OCCN3CCCCC3)cccc2c1=O"
False

Param item: "O=C(Nc1ccc(Cl)cc1)Nc1ccc(Cl)c(C(F)(F)F)c1"
False

Param item: CCC(C)(C)C1CCC(O)CC1 (configuration not stated)
False

Param item: "CS(=O)(=O)Nc1ccc([N+](=O)[O-])cc1Oc1ccccc1"
False

Param item: "O=C(Nc1cccc(C(F)(F)F)c1)c1cc(Br)cc(Br)c1O"
True

Param item: CC(=O)OC1C2(C)CCC(C2)C1(C)C (configuration not stated)
False

Param item: "Cn1cnc2c(=O)[nH]c(N)nc21"
False

Param item: NC(CSCC(=O)O)C(=O)O (configuration not stated)
False

Param item: "CSCC[C@H](NC(=O)[C@H](Cc1c[nH]c2ccccc12)NC(=O)CCNC(=O)OC(C)(C)C)C(=O)N[C@@H](CC(=O)O)C(=O)N[C@@H](Cc1ccccc1)C(N)=O"
False
